# Tested on: Rat fibroblasts (CREF)
# methodSummary: Peg3 promoter luciferase inhibitors, potency, dose response, cell-based, HeLa, CREF/GAPDH counter-screen panel (AID 624167)
# testSettings: CREF/GAPDH counter-screens, mean of runs
The source made the active and inactive calls.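 How the source made its calls: active means mean IC50 for reducing PEG3 promoter reporter signal at or below a set limit, with IC50 above the limit in both counter screens; inactive means the rest, including counter screen hits.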
Log the outcome using a class from active, inactive

Prompt: For this compound, state the assay outcome: Clc1ccccc1/C=C/c1nc(-c2ccccn2)no1
Completion: active

Prompt: Field entry: COC1=C(Br)C(=O)c2ncccc2C1=O
Completion: active

Prompt: Field entry: COC(=O)Cc1[nH]n(-c2nc3ccccc3s2)c(=O)c1C(C)=Nc1ccc(C)cc1
Completion: active

Prompt: Field entry: NC(C(=O)O)C1ON=C(Cl)C1O (stereo unspecified)
Completion: inactive

Prompt: Field entry: CC(C)CC(=NNC(=O)c1ccncc1)c1cc(Cl)ccc1O
Completion: active

Prompt: Field entry: O=C(O)c1ccc(N/N=C/c2ccc3c(c2)OCO3)cc1
Completion: inactive
